Molecular target: T1, FZD9 cysteine-rich domain (CRD), MYC-tagged and GPI-anchored on CHO cells (human, UniProt O00144 35-161, GPI anchor)
T1 construct: also called FZD9 CRD; CHO-myc-FZDGPI; not shown: MYC tag and GPI anchor signal
T1 sequence: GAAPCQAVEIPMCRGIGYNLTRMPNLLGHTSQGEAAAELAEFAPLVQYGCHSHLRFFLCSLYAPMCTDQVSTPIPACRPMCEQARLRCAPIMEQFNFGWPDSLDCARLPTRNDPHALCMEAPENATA
Test: flow cytometry, CHO-CRD cells;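 further: flow cytometry of Fab binding to CHO cells overexpressing a Frizzled CRD, with binding defined as median fluorescence over twice that of CHO cells lacking any Frizzled CRD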
reported.metric: median fluorescence
# output: bare number, no unit

binder	median fluorescence
Fab-2909 (Fab, V domains shown, Fab; also called Fv-2909) VH: EVQLVESGGGLVQPGGSLRLSCAASGFNISSSYMHWVRQAPGKGLEWVASISSSSGYTSYADSVKGRFTISADTSKNTAYLQMNSLRAEDTAVYYCARTVRGSKKPYFSGWAMDYWGQGTLVTVSS VL: DIQMTQSPSSLSASVGDRVTITCRASQSVSSAVAWYQQKPGKAPKLLIYSASSLYSGVPSRFSGSRSGTDFTLTISSLQPEDFATYYCQQSWSYHYLITFGQGTKVEIK	2.57

Attention now shifts to the item below.
Hello, please tell me recorded median fluorescence for this one: Fab-2919 (Fab, V domains shown, Fab) VH: EVQLVESGGGLVQPGGSLRLSCAASGFNISYSYIHWVRQAPGKGLEWVASIYSSSGSTSYADSVKGRFTISADTSKNTAYLQMNSLRAEDTAVYYCARGAIDYWGQGTLVTVSS VL: DIQMTQSPSSLSASVGDRVTITCRASQSVSSAVAWYQQKPGKAPKLLIYSASSLYSGVPSRFSGSRSGTDFTLTISSLQPEDFATYYCQQWYSSGHVLITFGQGTKVEIK
2.79
